These data points were gathered from patent US20210032365A1.

measured.target: T1, human C1s (human, UniProt P09871 16-688)
T1 construct: also called hC1s; serum-derived human C1s (CompTech)
T1 sequence: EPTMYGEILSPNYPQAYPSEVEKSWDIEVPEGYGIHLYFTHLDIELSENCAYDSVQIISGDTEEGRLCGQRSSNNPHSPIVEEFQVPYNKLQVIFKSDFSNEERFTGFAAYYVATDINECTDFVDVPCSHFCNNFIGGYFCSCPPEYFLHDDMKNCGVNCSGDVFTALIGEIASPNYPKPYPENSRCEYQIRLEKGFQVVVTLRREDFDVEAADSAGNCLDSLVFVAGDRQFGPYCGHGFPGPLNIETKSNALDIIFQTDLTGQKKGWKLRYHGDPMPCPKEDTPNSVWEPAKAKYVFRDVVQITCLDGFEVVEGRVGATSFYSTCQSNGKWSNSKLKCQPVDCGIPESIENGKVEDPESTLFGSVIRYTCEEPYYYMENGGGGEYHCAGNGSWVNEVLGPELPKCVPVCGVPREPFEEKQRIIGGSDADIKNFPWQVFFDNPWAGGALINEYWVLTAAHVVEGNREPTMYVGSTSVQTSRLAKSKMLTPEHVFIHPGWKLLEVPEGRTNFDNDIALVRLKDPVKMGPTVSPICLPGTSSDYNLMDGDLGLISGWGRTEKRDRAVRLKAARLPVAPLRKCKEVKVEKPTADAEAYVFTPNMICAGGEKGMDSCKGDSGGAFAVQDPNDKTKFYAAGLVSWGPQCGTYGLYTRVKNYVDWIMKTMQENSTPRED
assay.protocol: SPR, Ab captured; pH 5.8, 1.2 mM Ca
Field: kon. Provide a value for each of the binders that follow.

Task item: kon lookup needed for C1_IPN92H0038-SG4GK/IPN93L0023-SK1 (antibody, human IgG4 S228P, kappa, name in Kabat numbering, V domains shown, also called IPN92H0038/IPN93L0023) VH: EVMLVESGGGLVKPGGSLRLSCAASGFTFSNYAMSWVRQAPGKGLEWVATISSGGSHTYYLDSVKHRFTISRDNSKDTLYLQMNSLRAEDTALYYCARLFTGHAMDYWGQGTLVTVSS VL: QIVLTQSPATLSLSPGERATLSCTASSSVSSSYLHWYQQKPGKAPKLWIYSTSNLASGVPSRFSGSGSGTDYTLTISSLQPEDFATYYCHQYYRHPPITFGQGTKLEIKR , thanks.
Reply: 524000 M⁻¹ s⁻¹

Task item: Also C1_IPN009VH2-SG4GK/IPN93L0029-SK1 (antibody, human IgG4 S228P, kappa, name in Kabat numbering, V domains shown, also called IPN009VH2/IPN93L0029) VH: EVMLVESGGGLVKPGGSLRLSCAASGFTFSNYAMSWVRQAPGKGLEWVATISSGGSHTYYLDSVKGRFTISRDNSKDTLYLQMNSLRAEDTALYYCARLFTGYAMDYWGQGTLVTVSS VL: QIVLTQSPATLSLSPGERATLSCTASSSVSSSYLHWYQQKPGKAPKLWIYSTSNLASGVPSRFSGSGSGTDYTLTISSLQPEDFATYYCHQYHRLHPITFGQGTKLEIKR ?
Reply: 553000 M⁻¹ s⁻¹

Task item: Again, but for C1_IPN009VH2-SG4GK/IPN93L0030-SK1 (antibody, human IgG4 S228P, kappa, name in Kabat numbering, V domains shown, also called IPN009VH2/IPN93L0030) VH: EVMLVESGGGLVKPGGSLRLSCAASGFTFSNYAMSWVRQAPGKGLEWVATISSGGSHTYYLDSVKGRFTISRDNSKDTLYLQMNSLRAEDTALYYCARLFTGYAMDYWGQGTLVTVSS VL: QIVLTQSPATLSLSPGERATLSCTASSSVSSSYLHWYQQKPGKAPKLWIYSTSNLASGVPSRFSGSGSGTDYTLTISSLQPEDFATYYCHQYYRHHPITFGQGTKLEIKR
Reply: 487000 M⁻¹ s⁻¹
